target: T1, human IL-4Rα (hIL-4Rα) monomeric protein (human, UniProt P24394 26-232, limits assumed)
T1 construct: also called hIL-4Rα antigen; barcoded hIL-4Rα
experiment notes: Biacore (SPR); negative log10 of Kd
# if value of negLog10Kd reaches 7, tag Satisfied; if it stays below, tag Not satisfied

Prompt: Hi team, for Table 1 Line # 16 antibody (BM_Plasma_cell) (antibody, human IgG4, V domains shown, Cloned with human IgG4/human Igk constants for Kd; barcode counts are of the source cell's own IgG) VH: EVQLVESGGGLVQPGRSLRLSCAASGFTFDDYGMHWVRQAPGKGLEWVSGISWNSGHIGYADSVKGRFTISRDNAKNSLNLQMNSLRAEDTALYYCAKDISSSWYGYFDLWGRGTLVTVSS VL: DIQMTQSPSSLSASVGDRVTITCRASQGISNFLAWFQQKPGKVPKLLIYAASTLQSGVPSRFSGSGSGTDFTLTISSLQPEDVATYYCQEYNSAPRTFGQGTKVEIK , is the recorded negLog10Kd at or above 7?
Response: Satisfied

Prompt: Hi team, for Table 1 Line # 35 antibody (SP_B_cell) (antibody, human IgG4, V domains shown, Cloned with human IgG4/human Igk constants for Kd; barcode counts are of the source cell's own IgG) VH: EVQLVESGGGLVKPGGSLRLSCAASGFTFSSYSMNWVRQAPGKGLEWVSSISSSSSYIYYADSVKGRFTISRDNAKNSLYLQMNSLRAEDTAVYYCARDRSSSPLENWGQGTLVTVSS VL: DIQMTQSPSSVSASVGDRVTITCRASQGISSWLAWYQQKPGKAPKLLIYAASSLQSGVPSRFSGSGSGTDFTLTISSLQPEDFATYYCQQANSFPITFGQGTRLEIK , is the recorded negLog10Kd at or above 7?
Response: Satisfied

Prompt: Hi team, for Table 1 Line # 32 antibody (SP_B_cell) (antibody, human IgG4, V domains shown, Cloned with human IgG4/human Igk constants for Kd; barcode counts are of the source cell's own IgG) VH: EVQLVESGGGLVQPGRSLRLSCAASGFTFDDYAMHWVRQAPGKGLEWVSGVNWNGVSLGYADSVKGRFTISRDNAKNSLYLQMNSLRAEDTAFYYCAKDSGSYHYYYGMDGWGQGTTVTVSS VL: DIQMTQSPSSLSASVGDRVTITCRASQGIRNDLGWYQQKPGKDPKRLIFAATNLHGGVPSRFSGGVSGTEFTLTISSLQPEDFATYYCLQHNSYPLTFGGGTKVEIK , is the recorded negLog10Kd at or above 7?
Response: Satisfied

Prompt: Hi team, for Table 1 Line # 29 antibody (SP_B_cell) (antibody, V domains shown) VH: EVQLLESGGGLVQPGGSLRLSCAASGFTFSSYAMSWVRQAPGKGLEWVSAISGSGGSTYYADSVKGRFTISRDNSKNTLYLQMNSLRAEDTAIYYCARYGNWNYIWGQGTLVTVSS VL: DIQMTQSPSSVSASVGDRVTITCRASQGISSWLAWYQQKPGKAPKLLIYAASSLQSGVPSRFSGSGSGTDFTLTISSLQPEDFATYYCQQANSFPLTFGGGTKVEIK , is the recorded negLog10Kd at or above 7?
Response: Satisfied

Prompt: Hi team, for Table 1 Line # 53 antibody (SP_Plasma_cell) (antibody, human IgG4, V domains shown, Cloned with human IgG4/human Igk constants for Kd; barcode counts are of the source cell's own IgG) VH: EIQLVESGGGLVQPGRSLRLSCAASGFTFDDYAMHWVRQAPGKGLEWVSGINWNNGSLGYADSVKGRFTISRDNAKNSLYLQMNSLRTEDTALYYCVKDTGSWASYYGMDVWGHGTTVTVSS VL: DIQMTQSPSSLSASIGDRVTITCRASQGIRNDLGWYQQKPGKAPKRLIYAASSLQSGVPSRFSGSGSGTEFTLTISSLQPEDFATYYCLQHNSYPYTFGQGTKLEIK , is the recorded negLog10Kd at or above 7?
Response: Not satisfied

Prompt: Hi team, for Table 1 Line # 13 antibody (BM_Plasma_cell) (antibody, human IgG4, V domains shown, Cloned with human IgG4/human Igk constants for Kd; barcode counts are of the source cell's own IgG) VH: EVQLVESGGEMIRPGGSLRLSCAASGFIFDDYGMSWIRQAPGKGLEWVSGINWNGGHTGYSDSVKGRFTISRDNAKNSLYLQMNSLRAEDTALYHCVRDSSSSWYGVFDYWGQGTLVTVSS VL: DIQMTQSPSSLSASVGDRVTITCRASQGISNSLAWYQQKPGTVPKLLIFAASTLLSGIPSRFSGGGSGTDFTLTISSLQPEDVATYYCQNYNSAPRTFGQGTKVEIK , is the recorded negLog10Kd at or above 7?
Response: Satisfied

Prompt: Hi team, for Table 1 Line # 3 antibody (BM_Plasma_cell) (antibody, human IgG4, V domains shown, Cloned with human IgG4/human Igk constants for Kd; barcode counts are of the source cell's own IgG) VH: EVQLVESGGGLVQPGRSLRLSCAASGFTFDDYAMHWVRQVTGKGLEWVSGINWNSGNIGYADSVRGRFTISRDNAKNSLYLQMNSLRAEDTALYYCAKDSGSSWYGYFDLWGRGTLVTVSS VL: DIQMTQSPSTLSASVGDRVTITCRASQSISRWLAWYQQKPGKAPKFLIYKASSLESGVPSRFSGSGSGTEFTLTISSLQPDDFATYYCQQYNSDSRTFGQGTKVEIK , is the recorded negLog10Kd at or above 7?
Response: Not satisfied
